Substrate: O=c1cc(-c2cc(O)c(O)c(O)c2)oc2cc(O)cc(O)c12
Assay: purified protein
Details: co-substrate SAM, saturating
observed property: Km (µM)
I only need the number, in µM, no unit after it.

Request: // query Km value for entry TaOMT2 (Triticum aestivum; G305S) (protein) MGSIAAGADEDACMYALQLVSSSILPMTLKNAIELGLLETLMAAGGKFLTPAEVAAKLPSAANPEAPDMVDRMLRLLASYNVVSCRTEDGKDGRLSRRYGAAPVCKYLTPNEDGVSMSALALMNQDKVLMESWYYLKDAVLDGGIPFNKAYGMSAFEYHGTDPRFNRVFNEGMKNHSIIITKKLLESYKGFEGLGTLVDVGGGVGATVAAITAHYPTIKGINFDLPHVISEAPPFPGVTHVGGDMFQKVPSGDAILMKWILHDWSDEHCATLLKNCYDALPAHGKVVLVECILPVNPEATPKAQSVFHVDMIMLAHNPGGRERYEREFEALAKGAGFAAMKTTYIYANAWAIEFTK
Response: 118.41
